- experimental target: Serotonin 5HT7 receptors (Homo sapiens (Human))
- Sequence (P34969 whole entry): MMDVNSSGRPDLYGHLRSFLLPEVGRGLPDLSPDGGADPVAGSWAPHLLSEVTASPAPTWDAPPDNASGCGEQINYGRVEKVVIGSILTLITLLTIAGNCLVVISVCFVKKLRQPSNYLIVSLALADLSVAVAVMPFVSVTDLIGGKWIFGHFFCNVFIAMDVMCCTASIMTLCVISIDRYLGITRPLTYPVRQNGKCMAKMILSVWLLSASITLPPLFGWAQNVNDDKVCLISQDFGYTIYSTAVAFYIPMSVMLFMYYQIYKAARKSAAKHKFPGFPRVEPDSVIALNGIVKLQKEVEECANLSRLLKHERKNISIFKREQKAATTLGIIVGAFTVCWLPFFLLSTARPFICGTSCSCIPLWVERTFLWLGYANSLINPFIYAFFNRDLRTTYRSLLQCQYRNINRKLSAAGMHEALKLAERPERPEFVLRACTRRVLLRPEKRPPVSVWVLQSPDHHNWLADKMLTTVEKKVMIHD
- protocol notes: Radiolabel Binding Studies for Serotonin 5HT7 receptors
- study conditions: read-out: 5-HT7 % inhib @ 10 uM
Classification by inhibition at 10 µM follows these ranges: b0 = under 60%, b1 = from 60% up to 90%, b2 = 90% and over

>  <molecule>
COc1cccc(N2CCN(CCC3CC4(CCCCC4)C(=O)O3)CC2)c1 (stereo not shown)

>  <discrete label>
b2

$$$$
>  <molecule>
CCC1(CC)CC(CCN2CCC(C(O)(c3ccccc3)c3ccccc3)CC2)OC1=O (stereo not shown)

>  <discrete label>
b1

$$$$
>  <molecule>
CCC1(CC)CC(CCN2CCC(c3ccccc3)CC2)OC1=O (stereo not shown)

>  <discrete label>
b0

$$$$
>  <molecule>
N#Cc1ccc(N2CCN(CCC3CC4(CCCCC4)C(=O)O3)CC2)nc1 (stereo not shown)

>  <discrete label>
b1

$$$$

[Q] Bin this entry: O=C1OC(CCN2CCN(c3ccccc3Cl)CC2)CC12CCCCC2 (stereo not shown)
[A] b2

[Q] Bin this entry: CCC1(CC)CC(CCN2CCN(c3cccc(OC)c3)CC2)OC1=O (stereo not shown)
[A] b2

[Q] Bin this entry: CCC1(CC)CC(CCN2CCN(c3ccccc3C(C)C)CC2)OC1=O (stereo not shown)
[A] b0

[Q] Bin this entry: CCC1(CC)CC(CCN2CCN(c3ccccc3OC)CC2)OC1=O (stereo not shown)
[A] b2

====

Kindly supply the reported inhibition at 10 µM values for the records listed here.
- experimental target: UniProt:P34969
- protocol notes: Radiolabel Binding Studies for Serotonin 5HT7 receptors;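 note: displacement of a tritiated radioligand from membranes of stably transfected cells carrying recombinant 5-HT7 receptor, with filter-bound radioactivity measured by scintillation counting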
- study conditions: read-out: 5-HT7 % inhib @ 10 uM
Numbers only, in %.

Worked examples follow.
>  <molecule>
O=C1OC(CCN2CCN(c3cccnc3)CC2)CC12CCCCC2 (centres unmarked)

>  <inhibition at 10 µM (%)>
76.3

$$$$
>  <molecule>
CCC1(CC)CC(CCN2CCN(CCc3ccccc3)CC2)OC1=O (centres unmarked)

>  <inhibition at 10 µM (%)>
53.1

$$$$
>  <molecule>
CC(C)(C)c1ccccc1N1CCN(CCC2CC3(CCCC3)C(=O)O2)CC1 (centres unmarked)

>  <inhibition at 10 µM (%)>
81.7

$$$$
>  <molecule>
O=C1OC(CCN2CCN(c3ccc(O)cc3)CC2)CC12CCCCC2 (centres unmarked)

>  <inhibition at 10 µM (%)>
54.1

$$$$
>  <molecule>
CCC1(CC)CC(CCN2CCN(c3ccccc3)CC2)OC1=O (centres unmarked)

>  <inhibition at 10 µM (%)>
95.4

$$$$

List the reported inhibition at 10 µM of each molecule below.
1. O=C1OC(CCN2CCN(c3ccncc3)CC2)CC12CCCCC2 (centres unmarked)
2. O=C1OC(CCN2CCN(c3ccccc3)CC2)CC12CCCCC2 (centres unmarked)
3. CCC1(CC)CC(CCN2CCN(c3ccc(C)cc3)CC2)OC1=O (centres unmarked)
4. CCC1(CC)CC(CCN2CCN(c3c(C)cccc3C)CC2)OC1=O (centres unmarked)
5. O=C1OC(CCN2CCN(c3ccccc3O)CC2)CC12CCCCC2 (centres unmarked)
6. CCC1(CC)CC(CCN2CCN(c3ccc(C#N)cc3)CC2)OC1=O (centres unmarked)
7. CCC1(CC)CC(CCN2CCN(c3ccc(O)cc3)CC2)OC1=O (centres unmarked)
8. O=C1OC(CCN2CCN(c3ccccn3)CC2)CC12CCCCC2 (centres unmarked)

[A]
46.5
98
96.6
70.4
93.3
88.4
95.9
97.4
